Data provenance is patent US20250073302A1.

- target desc: 20S core particle (CP) proteasome
- assay notes: cell-based or functional assay
Non-standard residues stand in square brackets, D forms with d. Phe(3-F) = N[C@@H](Cc1cccc(F)c1)C(=O)O
// reported TAS-1 (percent stimulation of 20S CP) for each item listed

Some solved entries appear below for comparison.
{"binder": "cyclo(T[dL]A[dF]R[dA]) (SMILES CC(C)C[C@H]1NC(=O)[C@H]([C@@H](C)O)NC(=O)[C@@H](C)NC(=O)[C@H](CCCNC(=N)N)NC(=O)[C@@H](Cc2ccccc2)NC(=O)[C@H](C)NC1=O) [CyPPS4]", "TAS-1 (percent stimulation of 20S CP)": "275 % of DMSO"}
{"binder": "cyclo(T[dL][Phe(3-F)][dF]R[dA]) (SMILES CC(C)C[C@H]1NC(=O)[C@H]([C@@H](C)O)NC(=O)[C@@H](C)NC(=O)[C@H](CCCNC(=N)N)NC(=O)[C@@H](Cc2ccccc2)NC(=O)[C@H](Cc2cccc(F)c2)NC1=O) [CyPPS31]", "TAS-1 (percent stimulation of 20S CP)": "199 % of DMSO"}
{"binder": "cyclo(T[dL]F[dF]R[dS]) (SMILES CC(C)C[C@H]1NC(=O)[C@H]([C@@H](C)O)NC(=O)[C@@H](CO)NC(=O)[C@H](CCCNC(=N)N)NC(=O)[C@@H](Cc2ccccc2)NC(=O)[C@H](Cc2ccccc2)NC1=O) [CyPPS22]", "TAS-1 (percent stimulation of 20S CP)": "298 % of DMSO"}
{"binder": "cyclo(T[dK]F[dF]R[dA]) (SMILES C[C@H]1NC(=O)[C@H](CCCNC(=N)N)NC(=O)[C@@H](Cc2ccccc2)NC(=O)[C@H](Cc2ccccc2)NC(=O)[C@@H](CCCCN)NC(=O)[C@H]([C@@H](C)O)NC1=O) [CyPPS11]", "TAS-1 (percent stimulation of 20S CP)": "101 % of DMSO"}

Input: Which TAS-1 (percent stimulation of 20S CP) is listed for cyclo(T[dL]R[dF]R[dA]) (SMILES CC(C)C[C@H]1NC(=O)[C@H]([C@@H](C)O)NC(=O)[C@@H](C)NC(=O)[C@H](CCCNC(=N)N)NC(=O)[C@@H](Cc2ccccc2)NC(=O)[C@H](CCCNC(=N)N)NC1=O) [CyPPS30] ?
Output: 212 % of DMSO

Input: Query: TAS-1 (percent stimulation of 20S CP); subject: cyclo(V[dL]F[dF]R[dA]) (SMILES CC(C)C[C@H]1NC(=O)[C@H](C(C)C)NC(=O)[C@@H](C)NC(=O)[C@H](CCCNC(=N)N)NC(=O)[C@@H](Cc2ccccc2)NC(=O)[C@H](Cc2ccccc2)NC1=O) [CyPPS9]
Output: 310 % of DMSO

Input: What TAS-1 (percent stimulation of 20S CP) value was documented for this binder, cyclo(T[dL]F[dY]R[dA]) (SMILES CC(C)C[C@H]1NC(=O)[C@H]([C@@H](C)O)NC(=O)[C@@H](C)NC(=O)[C@H](CCCNC(=N)N)NC(=O)[C@@H](Cc2ccc(O)cc2)NC(=O)[C@H](Cc2ccccc2)NC1=O) [CyPPS17] ?
Output: 203 % of DMSO

Input: Entry cyclo(T[dL]F[dA]R[dA]) (SMILES CC(C)C[C@H]1NC(=O)[C@H]([C@@H](C)O)NC(=O)[C@@H](C)NC(=O)[C@H](CCCNC(=N)N)NC(=O)[C@@H](C)NC(=O)[C@H](Cc2ccccc2)NC1=O) [CyPPS5] has what TAS-1 (percent stimulation of 20S CP)?
Output: 170 % of DMSO
